Source: patent USRE47193E1

- experimental_target: TLR9 (Homo sapiens, UniProt Q9NR96)
- Sequence (Q9NR96 26-1032): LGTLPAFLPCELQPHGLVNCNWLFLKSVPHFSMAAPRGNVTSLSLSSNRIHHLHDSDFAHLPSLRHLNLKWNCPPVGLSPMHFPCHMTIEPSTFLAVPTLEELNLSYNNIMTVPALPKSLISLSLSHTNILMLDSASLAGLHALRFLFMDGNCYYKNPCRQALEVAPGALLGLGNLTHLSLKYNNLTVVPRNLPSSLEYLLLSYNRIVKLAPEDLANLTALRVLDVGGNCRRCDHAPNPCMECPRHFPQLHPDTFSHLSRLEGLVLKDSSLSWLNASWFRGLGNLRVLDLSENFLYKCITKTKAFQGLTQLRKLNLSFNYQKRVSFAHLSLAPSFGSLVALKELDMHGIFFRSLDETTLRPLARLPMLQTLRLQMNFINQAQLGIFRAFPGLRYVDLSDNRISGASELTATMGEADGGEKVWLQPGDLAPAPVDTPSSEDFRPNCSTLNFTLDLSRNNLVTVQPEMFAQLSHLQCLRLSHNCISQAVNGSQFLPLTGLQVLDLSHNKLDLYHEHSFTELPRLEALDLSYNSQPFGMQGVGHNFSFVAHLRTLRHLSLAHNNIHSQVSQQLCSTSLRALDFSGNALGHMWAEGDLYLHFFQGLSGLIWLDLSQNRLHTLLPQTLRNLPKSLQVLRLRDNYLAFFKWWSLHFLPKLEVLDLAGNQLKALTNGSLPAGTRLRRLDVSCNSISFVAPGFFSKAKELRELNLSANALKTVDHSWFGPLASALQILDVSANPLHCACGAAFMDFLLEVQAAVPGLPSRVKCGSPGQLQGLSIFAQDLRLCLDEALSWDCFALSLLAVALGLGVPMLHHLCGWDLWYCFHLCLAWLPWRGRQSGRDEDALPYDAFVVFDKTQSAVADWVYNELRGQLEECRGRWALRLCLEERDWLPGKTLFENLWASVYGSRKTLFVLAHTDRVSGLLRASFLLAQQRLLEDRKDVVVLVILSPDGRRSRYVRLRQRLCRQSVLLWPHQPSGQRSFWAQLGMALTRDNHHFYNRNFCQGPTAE
- protocol: Subsequent human PBMC assay, DNA-mediated activation of TLR9, IL-6 and IFN-α
- Assay type: cell-based
- reported_conditions: IC50 IFN-α, human PBMC; ligand ODN2216-Ig; individual donors

compound: C[C@@H]1CN(c2ccc(C#N)c3ncccc23)C[C@H](C(=O)N[C@H]2CNC[C@H]2F)O1.Cl [ER-899742, hydrochloride]
IC50: > 10 µM

====

- experimental_target: TLR9 (Homo sapiens)
- protocol: Subsequent human PBMC assay, DNA-mediated activation of TLR9, IL-6 and IFN-α
- Type: cell-based
- reported_conditions: IC50 IL-6 Ave., human PBMC; ligand ODN2216-Ig; average of donors
property_label: IC50

compound: C[C@@H]1CN(c2ccc(C#N)c3ncccc23)C[C@H](C(=O)N[C@H]2CNC[C@H]2F)O1.Cl [ER-899742, hydrochloride]
experimental_target: TLR9 (Homo sapiens)
observed_result: > 10 µM

====

The molecules listed here are annotated with their % Suppression vs. Vehicle.
- experimental_target: mouse TLR7 (Mus musculus)
- Sequence (P58681 27-1050): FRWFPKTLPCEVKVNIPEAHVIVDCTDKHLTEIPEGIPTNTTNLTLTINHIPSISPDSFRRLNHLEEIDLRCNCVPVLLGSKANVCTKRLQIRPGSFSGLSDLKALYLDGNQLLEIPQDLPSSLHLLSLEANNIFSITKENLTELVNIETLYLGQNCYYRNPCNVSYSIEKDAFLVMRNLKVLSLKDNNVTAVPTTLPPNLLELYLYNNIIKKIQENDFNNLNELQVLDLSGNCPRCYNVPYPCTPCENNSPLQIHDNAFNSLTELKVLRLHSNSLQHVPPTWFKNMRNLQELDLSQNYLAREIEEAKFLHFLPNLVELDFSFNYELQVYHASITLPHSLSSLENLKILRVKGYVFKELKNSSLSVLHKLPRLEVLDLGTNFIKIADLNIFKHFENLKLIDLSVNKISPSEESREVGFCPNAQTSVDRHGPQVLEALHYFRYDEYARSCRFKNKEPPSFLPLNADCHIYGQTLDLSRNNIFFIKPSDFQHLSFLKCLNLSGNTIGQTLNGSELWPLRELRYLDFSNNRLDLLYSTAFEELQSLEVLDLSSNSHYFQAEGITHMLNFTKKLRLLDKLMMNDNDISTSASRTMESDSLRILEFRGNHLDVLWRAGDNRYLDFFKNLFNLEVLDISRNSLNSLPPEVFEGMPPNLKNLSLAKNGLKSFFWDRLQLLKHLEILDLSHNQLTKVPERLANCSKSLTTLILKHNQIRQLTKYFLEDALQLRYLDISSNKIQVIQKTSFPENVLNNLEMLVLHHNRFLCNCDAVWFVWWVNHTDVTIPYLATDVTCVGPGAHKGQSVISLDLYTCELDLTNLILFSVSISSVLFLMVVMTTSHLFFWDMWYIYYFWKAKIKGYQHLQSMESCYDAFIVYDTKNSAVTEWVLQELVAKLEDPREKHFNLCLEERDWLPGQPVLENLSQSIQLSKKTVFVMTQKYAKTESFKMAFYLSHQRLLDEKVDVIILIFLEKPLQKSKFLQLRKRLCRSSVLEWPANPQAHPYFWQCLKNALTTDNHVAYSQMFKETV
- protocol: Short-term in vivo (STIV) assay: oral dosing, R848 s.c., plasma IL-6
- Parameters: female BALB/c mice (Jackson Labs, Bar Harbor, Me.) were dosed by oral gavage; tissue Jackson Labs; host or cells: living female BALB/c mice; plasma IL-6 after s.c. R848
- reported_conditions: 24 h; 300 mg/kg

molecule: CC1CN(c2ccc(C#N)c3ncccc23)CC(C(=O)NCC2CNCCO2)O1 (stereo not shown)
% Suppression vs. Vehicle [%]: 35

molecule: CC(=O)NC1CCN(CC2CN(c3ccc(C#N)c4ncccc34)CC(C)O2)CC1 (stereo not shown)
% Suppression vs. Vehicle [%]: 55

molecule: C[C@@H]1CN(c2ccc(C#N)c3ncccc23)C[C@H](CN2CCN[C@@H](C)C2)O1
% Suppression vs. Vehicle [%]: 100

molecule: CC[C@H]1CN(C[C@H]2CN(c3ccc(C#N)c4ncccc34)C[C@@H](C)O2)CCN1
% Suppression vs. Vehicle [%]: 100

molecule: CC1CN(c2ccc(C#N)c3ncccc23)CC(C(=O)NCC(C)(C)N(C)C)O1 (stereo not shown)
% Suppression vs. Vehicle [%]: 100

molecule: CC1CN(c2ccc(C#N)c3ncccc23)CC(C(=O)NC2CCCNC2)O1 (stereo not shown)
% Suppression vs. Vehicle [%]: 80

molecule: CC1CN(c2ccc(C#N)c3ncccc23)CC(C(=O)NC2CCNCC2)O1 (stereo not shown)
% Suppression vs. Vehicle [%]: 34

====

- experimental_target: TLR9 (Homo sapiens, UniProt Q9NR96)
- protocol: Subsequent human PBMC assay, DNA-mediated activation of TLR9, IL-6 and IFN-α
- Type: cell-based
- reported_conditions: IC50 IL-6, human PBMC; ligand ODN2006-DOTAP; individual donors
pIC50: −log10 of the molar value.
property_label: pIC50

compound: C[C@@H]1CN(c2ccc(C#N)c3ncccc23)C[C@H](C(=O)N[C@H]2CNC[C@H]2F)O1.Cl [ER-899742, hydrochloride]
experimental_target: TLR9 (Homo sapiens, UniProt Q9NR96)
property_label: pIC50
observed_result: < 5.00

====

- experimental_target: mouse TLR7 (Mus musculus)
- Sequence (P58681 27-1050): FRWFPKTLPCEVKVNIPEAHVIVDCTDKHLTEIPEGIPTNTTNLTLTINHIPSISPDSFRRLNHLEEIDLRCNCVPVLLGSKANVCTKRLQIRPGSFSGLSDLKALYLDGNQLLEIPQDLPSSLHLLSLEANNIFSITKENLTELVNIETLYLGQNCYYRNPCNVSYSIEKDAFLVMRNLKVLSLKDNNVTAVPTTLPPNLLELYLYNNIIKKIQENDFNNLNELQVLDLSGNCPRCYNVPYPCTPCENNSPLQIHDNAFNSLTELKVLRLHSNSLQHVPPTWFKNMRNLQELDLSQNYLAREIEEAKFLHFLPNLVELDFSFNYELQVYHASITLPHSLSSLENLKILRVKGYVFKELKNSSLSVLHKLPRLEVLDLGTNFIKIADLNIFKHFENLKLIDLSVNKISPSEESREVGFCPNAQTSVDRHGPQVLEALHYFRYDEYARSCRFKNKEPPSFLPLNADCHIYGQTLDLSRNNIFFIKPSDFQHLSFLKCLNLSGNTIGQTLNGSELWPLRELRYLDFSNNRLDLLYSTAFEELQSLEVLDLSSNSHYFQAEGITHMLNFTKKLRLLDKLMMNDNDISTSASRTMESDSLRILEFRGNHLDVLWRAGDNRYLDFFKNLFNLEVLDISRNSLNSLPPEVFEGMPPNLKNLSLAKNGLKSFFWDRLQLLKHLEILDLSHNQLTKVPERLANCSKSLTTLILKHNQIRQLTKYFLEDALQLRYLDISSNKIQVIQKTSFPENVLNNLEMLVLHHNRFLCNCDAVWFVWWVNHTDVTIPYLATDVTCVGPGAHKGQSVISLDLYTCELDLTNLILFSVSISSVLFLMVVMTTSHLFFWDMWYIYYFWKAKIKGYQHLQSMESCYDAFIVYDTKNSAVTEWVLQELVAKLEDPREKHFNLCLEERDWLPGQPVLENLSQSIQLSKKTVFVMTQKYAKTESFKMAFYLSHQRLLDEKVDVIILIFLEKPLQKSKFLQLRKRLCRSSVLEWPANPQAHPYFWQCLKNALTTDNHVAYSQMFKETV
- protocol: Short-term in vivo (STIV) assay: oral dosing, R848 s.c., plasma IL-6
- Parameters: female BALB/c mice (Jackson Labs, Bar Harbor, Me.) were dosed by oral gavage; tissue Jackson Labs; host or cells: living female BALB/c mice; plasma IL-6 after s.c. R848
- reported_conditions: 19 h; 100 mg/kg
The molecules listed here are annotated with their % Suppression vs. Vehicle.

molecule: CC(C)N1CCN(C[C@H]2CN(c3ccc(C#N)c4ncccc34)C[C@@H](C)O2)CC1
% Suppression vs. Vehicle [%]: 82
//
molecule: CC1CN(c2ccc(C#N)c3ncccc23)CC(CN2CCCC2CO)O1 (centres unmarked)
% Suppression vs. Vehicle [%]: 19
//
molecule: CC1CN(c2ccc(C#N)c3ncccc23)CC(CN2CCC(N(C)C)CC2)O1 (centres unmarked)
% Suppression vs. Vehicle [%]: 91
//
molecule: CC1CN(c2ccc(C#N)c3ncccc23)CC(CN2CCNCC2C)O1 (centres unmarked)
% Suppression vs. Vehicle [%]: 95
//
molecule: CC(=O)NC1CCN(CC2CN(c3ccc(C#N)c4ncccc34)CC(C)O2)CC1 (centres unmarked)
% Suppression vs. Vehicle [%]: 53

====

- experimental_target: mouse TLR7 (Mus musculus, UniProt P58681)
- protocol: Short-term in vivo (STIV) assay: oral dosing, R848 s.c., plasma IL-6
- Parameters: female BALB/c mice (Jackson Labs, Bar Harbor, Me.) were dosed by oral gavage; tissue Jackson Labs; host or cells: living female BALB/c mice; plasma IL-6 after s.c. R848
- reported_conditions: 3 h; 33 mg/kg

molecule: C[C@@H]1CN(c2ccc(C#N)c3ncccc23)C[C@H](CNc2ccccn2)O1
scale_unit: %
% Suppression vs. Vehicle: 0
//
molecule: C[C@@H]1CN(c2ccc(C#N)c3ncccc23)C[C@H](CN2CCN(C)[C@H](C)C2)O1
scale_unit: %
% Suppression vs. Vehicle: 99
//
molecule: C[C@@H]1CN(c2ccc(C#N)c3ncccc23)C[C@H](CN2CCC(N3CCN(C)CC3)CC2)O1
scale_unit: %
% Suppression vs. Vehicle: 93
//
molecule: CC[C@H]1CN(C[C@H]2CN(c3ccc(C#N)c4ncccc34)C[C@@H](C)O2)CCN1C
scale_unit: %
% Suppression vs. Vehicle: 96
//
molecule: CC[C@H]1CN(C[C@H]2CN(c3ccc(C#N)c4ncccc34)C[C@@H](C)O2)CCN1
scale_unit: %
% Suppression vs. Vehicle: 90
//
molecule: C[C@@H]1CN(c2ccc(C#N)c3ncccc23)C[C@H](CNC2CCCC2)O1
scale_unit: %
% Suppression vs. Vehicle: 97
//
molecule: CC1CN(c2ccc(C#N)c3ncccc23)CC(CN2CCC(NC(=O)c3ccccc3)CC2)O1 (centres unmarked)
scale_unit: %
% Suppression vs. Vehicle: 98
//
molecule: CC1CN(c2ccc(C#N)c3ncccc23)CC(CN2CCN(C)CC2C)O1 (centres unmarked)
scale_unit: %
% Suppression vs. Vehicle: 100
